System: Pseudomonas aeruginosa
Assay: Antibacterial activity against Pseudomonas aeruginosa ATCC 27853 by broth microdilution method
Type: functional

- Smiles structure: "CC[C@H]1OC(=O)[C@H](C)C(=O)[C@H](C)[C@@H](O[C@@H]2O[C@H](C)C[C@H](N(C)C)[C@H]2O)[C@](C)(OC)C[C@@H](C)C(=O)[C@H](C)[C@H]2N(CC/C=C/c3cncc4cc(OCc5ccccc5)ccc34)C(=O)O[C@]12C"
  Censoring sign: ">"
  MIC [µg/mL]: 256
- Smiles structure: "CC[C@H]1OC(=O)[C@H](C)C(=O)[C@H](C)[C@@H](O[C@@H]2O[C@H](C)C[C@H](N(C)C)[C@H]2O)[C@](C)(OC)C[C@@H](C)C(=O)[C@H](C)[C@H]2N(CC/C=C/c3cncc4cc(C)ccc34)C(=O)O[C@]12C"
  Censoring sign: "="
  MIC [µg/mL]: 64
- Smiles structure: "CC[C@H]1OC(=O)[C@H](C)[C@@H](O[C@H]2C[C@@](C)(OC)[C@@H](O)[C@H](C)O2)[C@H](C)[C@@H](O[C@@H]2O[C@H](C)C[C@H](N(C)C)[C@H]2O)[C@](C)(OC)C[C@@H](C)C(=O)[C@H](C)[C@@H](O)[C@]1(C)O"
  Censoring sign: "="
  MIC [µg/mL]: 128
- Smiles structure: "CC[C@H]1OC(=O)[C@H](C)C(=O)[C@H](C)[C@@H](O[C@@H]2O[C@H](C)C[C@H](N(C)C)[C@H]2O)[C@](C)(OC)C[C@@H](C)C(=O)[C@H](C)[C@H]2N(CC/C=C/c3cncc4ccccc34)C(=O)O[C@]12C"
  Censoring sign: "="
  MIC [µg/mL]: 32
- Smiles structure: "CC[C@H]1OC(=O)[C@H](C)C(=O)[C@H](C)[C@@H](O[C@@H]2O[C@H](C)C[C@H](N(C)C)[C@H]2O)[C@](C)(OC)C[C@@H](C)C(=O)[C@H](C)[C@H]2N(CCCOc3ccc4cccnc4c3)C(=O)O[C@]12C"
  Censoring sign: "="
  MIC [µg/mL]: 32
- Smiles structure: "CC[C@H]1OC(=O)[C@H](C)C(=O)[C@H](C)[C@@H](O[C@@H]2O[C@H](C)C[C@H](N(C)C)[C@H]2O)[C@](C)(OC)C[C@@H](C)C(=O)[C@H](C)[C@H]2N(CCCCn3cnc(-c4cccnc4)c3)C(=O)O[C@]12C"
  Censoring sign: "="
  MIC [µg/mL]: 32
- Smiles structure: "CC[C@H]1OC(=O)[C@H](C)C(=O)[C@H](C)[C@@H](O[C@@H]2O[C@H](C)C[C@H](N(C)C)[C@H]2O)[C@](C)(OC)C[C@@H](C)C(=O)[C@H](C)[C@H]2N(CC/C=C/c3cncc4ccc(OCc5ccccc5)cc34)C(=O)O[C@]12C"
  Censoring sign: ">"
  MIC [µg/mL]: 256
- Smiles structure: "CC[C@H]1OC(=O)[C@@](C)(F)C(=O)[C@H](C)[C@@H](O[C@@H]2O[C@H](C)C[C@H](N(C)C)[C@H]2O)[C@](C)(OC)C[C@@H](C)C(=O)[C@H](C)[C@H]2N(CC/C=C/c3cnc4ccccc4c3)C(=O)O[C@]12C"
  Censoring sign: "="
  MIC [µg/mL]: 16
- Smiles structure: "CC[C@H]1OC(=O)[C@H](C)C(=O)[C@H](C)[C@@H](O[C@@H]2O[C@H](C)C[C@H](N(C)C)[C@H]2O)[C@](C)(OC)C[C@@H](C)C(=O)[C@H](C)[C@H]2N(CC/C=C/c3cncc4ccc(-c5ccccc5)cc34)C(=O)O[C@]12C"
  Censoring sign: ">"
  MIC [µg/mL]: 256
- Smiles structure: "CC[C@H]1OC(=O)[C@H](C)C(=O)[C@H](C)[C@@H](O[C@@H]2O[C@H](C)C[C@H](N(C)C)[C@H]2O)[C@](C)(OC)C[C@@H](C)C(=O)[C@H](C)[C@H]2N(CC/C=C/c3cncc4cc(OC)ccc34)C(=O)O[C@]12C"
  Censoring sign: "="
  MIC [µg/mL]: 64
- Smiles structure: "CC[C@H]1OC(=O)[C@@](C)(F)C(=O)[C@H](C)[C@@H](O[C@@H]2O[C@H](C)C[C@H](N(C)C)[C@H]2O)[C@](C)(OC)C[C@@H](C)C(=O)[C@H](C)[C@H]2N(CCCOc3cnc4ccccc4c3)C(=O)O[C@]12C"
  Censoring sign: "="
  MIC [µg/mL]: 16

Reference source: ChEMBL document CHEMBL4118285
